Origin of values: the Human Domainome abundance scans (Beltran et al. 2025)

B1: Homeobox expressed in ES cells 1, residues 110 to 165; numbered along this chain, Q9UBX0 (parent)
chain: RPRTAFTQNQIEVLENVFRVNCYPGIDIREDLAQKLNLEEDRIQIWFQNRRAKLKR

# Variants of: B1
# assayText: abundance fitness (aPCA) (normalised: wild type 0, dead -1); higher = more abundant; growth selection in yeast, the domain comes from the species named
# testContext: Homo sapiens
Answer 0 (no) if abundance fitness is under -0.2, and 1 (yes) if it is -0.2 or more.

Recorded results for 5 variants are shown here.
mutationid=I26Q category="1 (yes)"
mutationid=N16T category="1 (yes)"
mutationid=I26M category="0 (no)"
mutationid=I11C category="0 (no)"
mutationid=C22I category="1 (yes)"

Req: Could you please find out whether R19K has abundance fitness that meets -0.2 or exceeds it?
Resp: 1 (yes)

Req: Could you please find out whether R19E has abundance fitness that meets -0.2 or exceeds it?
Resp: 0 (no)

Req: Could you please find out whether P2F has abundance fitness that meets -0.2 or exceeds it?
Resp: 1 (yes)

Req: Could you please find out whether Q8T has abundance fitness that meets -0.2 or exceeds it?
Resp: 0 (no)

Req: Could you please find out whether I28C has abundance fitness that meets -0.2 or exceeds it?
Resp: 0 (no)

Req: Could you please find out whether Q34Y has abundance fitness that meets -0.2 or exceeds it?
Resp: 0 (no)
